target: human glucagon receptor (human, UniProt P47871 26-477); experiment: cell-based or functional assay
Each entry below carries its reported EC50, cAMP.

Which measured EC50, cAMP value corresponds to YXEGTXTSDKSIXLDXKAQXEFIXXLIEGGPSSGAPPPS (Aib2, αMeF(2F)6, αMeL13, Orn16, Aib20, D-Glu24, αMeY25, K10 and K17: K(AEEA2-(γ-Glu)-CO-(CH2)14-CH3), C-terminal NH2) [Example 29] ?
> 9.95 µM

Also YXEGTXTSDXSIXLDXKAQXXFIXXLIEGGKSSGAPPPS (Aib2, αMeF(2F)6, 4Pal10, αMeL13, Orn16, Aib20, Orn21, D-Glu24, αMeY25, K17 and K31: K(AEEA2-(γ-Glu)-CO-(CH2)12-CO2H), C-terminal NH2) [Example 150] , if possible.
> 9.95 µM

Also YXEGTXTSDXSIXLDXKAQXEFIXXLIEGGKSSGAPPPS (Aib2, αMeF(2F)6, Nle10, αMeL13, Orn16, Aib20, D-Glu24, αMeY25, K17 and K31: K(AEEA2-(γ-Glu)-CO-(CH2)12-CO2H), C-terminal NH2) [Example 60] , if possible.
> 9.95 µM
